Hello, the source for this data is patent US11739074B2, in case you need it.

- system under test: KRAS G13D (Homo sapiens, UniProt P01116+P62937, G13D)
- Sequence (P01116 1-169 isoform P01116-2 G13D limits assumed): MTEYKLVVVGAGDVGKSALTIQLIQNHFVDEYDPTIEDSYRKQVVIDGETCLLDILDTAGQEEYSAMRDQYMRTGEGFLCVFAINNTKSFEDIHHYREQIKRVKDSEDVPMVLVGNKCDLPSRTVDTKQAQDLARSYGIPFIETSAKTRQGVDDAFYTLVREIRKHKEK
- Sequence (P62937 whole entry): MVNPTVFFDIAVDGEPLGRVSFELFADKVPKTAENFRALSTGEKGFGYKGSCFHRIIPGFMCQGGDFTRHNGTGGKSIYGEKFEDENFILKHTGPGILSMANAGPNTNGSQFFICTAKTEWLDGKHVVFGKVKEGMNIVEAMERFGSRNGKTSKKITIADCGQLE
- assay protocol: Ras-Raf disruption/FRET/MOA assay, KRAS G13D
- Type: biochemical
- assay conditions: disruption of BRAF RBD binding, with Cyclophilin A; read-out: KRAS G13D FRET IC50
IC50 values by entry

Observe how each entry below is paired with its result.
CCn1c(-c2cnccc2COC)c2c3cc(ccc31)-c1cc(O)cc(c1)C[C@H](NC(=O)[C@H](C(C)C)N(C)C(=O)CN(C)C(=O)[C@H]1[C@@H](C)N1[S@+]([O-])C(C)(C)C)C(=O)N1CCC[C@H](N1)C(=O)OCC(C)(C)C2 (stereo partly drawn) [Compound 53] :: 0.1 to 1 µM
CCn1c(-c2cnccc2COC)c2c3cc(ccc31)-c1cccc(c1)C[C@H](NC(=O)[C@H](C(C)C)N(C)C(=O)[C@@H]1CC[C@@H](N=C=Nc3ccc(OC)cc3)C1)C(=O)N1CCC[C@H](N1)C(=O)OCC(C)(C)C2 [70 A and B] :: > 10 µM
CCn1c(-c2cnccc2COC)c2c3cc(ccc31)-c1cc(O)cc(c1)C[C@H](NC(=O)[C@H](C(C)C)N(C)C(=O)CN(C)C(=O)[C@@H]1[C@H](C(=O)OC)N1[S@@+]([O-])C(C)(C)C)C(=O)N1CCC[C@H](N1)C(=O)OCC(C)(C)C2 (stereo partly drawn) [Compound 50] :: 0.1 to 1 µM
CCn1c(-c2cccnc2[C@H](C)OC)c2c3cc(ccc31)-c1cc(cc(C(F)F)c1)C[C@H](NC(=O)[C@H](C1CCCC1)N1CC[C@]3(CCN(C(=O)[C@@H]4N[C@@H]4C4CC4)C3)C1=O)C(=O)N1CCC[C@H](N1)C(=O)OCC(C)(C)C2 [Compound 318] :: 1 to 10 µM
CCn1c(-c2cnccc2COC)c2c3cc(ccc31)-c1cc(O)cc(c1)C[C@H](NC(=O)[C@H](C(C)C)N(C)C(=O)CN(C)C(=O)C1CN1S(C)(=O)=O)C(=O)N1CCC[C@H](N1)C(=O)OCC(C)(C)C2 (stereo partly drawn) [Compound 13] :: 0.1 to 1 µM

Could you now consider this next compound?
[ask] Item: CCn1c(-c2cccnc2[C@H](C)OC)c2c3cc(ccc31)-c1cc(O)cc(c1)C[C@H](NC(=O)[C@H](C1CCCC1)N(C)C(=O)[C@H]1CCN(C(=O)[C@H]3CN3)C1)C(=O)N1CCC[C@H](N1)C(=O)OCC(C)(C)C2 [Compound 58] Test system: KRAS G13D (Homo sapiens, UniProt P01116+P62937, G13D) Read-out: IC50 Value: ?
[reply] 0.01 to 0.1 µM
